test: Tacrolimus pharmacokinetic profiles and trough level monitoring before and after switch of booster from ritonavir to cobicistat in an HIV-infected kidney transplant recipient; format: in vivo, human; details: human, plasma, oral; co-administered with darunavir/cobicistat 800/150 mg once daily; 3rd (sixth overall) pharmacokinetic profile; dosing interval 10 days for practical reasons; read-out: AUC264h
Assay Endpoint: AUC(0-t) (ng·h/mL)
Give the value, in units of ng·h/mL, as a plain number.

Lookup: Bench note: what AUC(0-t) did C=CC[C@@H]1/C=C(\C)C[C@H](C)C[C@H](OC)[C@H]2O[C@@](O)(C(=O)C(=O)N3CCCC[C@H]3C(=O)O[C@H](/C(C)=C/[C@@H]3CC[C@@H](O)[C@H](OC)C3)[C@H](C)[C@@H](O)CC1=O)[C@H](C)C[C@@H]2OC [Tacrolimus, tacrolimus] show?
Found: 1240

---

test: Tacrolimus pharmacokinetic profiles and trough level monitoring before and after switch of booster from ritonavir to cobicistat in an HIV-infected kidney transplant recipient; format: in vivo, human; settings: human, plasma, oral, co-administered with darunavir/cobicistat 800/150 mg once daily; 1st pharmacokinetic profile; read-out: T1/2 (elimination half-life) (converted)
Assay Endpoint: half-life (h)
Report as a plain number; the unit h is understood.

Lookup: Reported half-life for C=CC[C@@H]1/C=C(\C)C[C@H](C)C[C@H](OC)[C@H]2O[C@@](O)(C(=O)C(=O)N3CCCC[C@H]3C(=O)O[C@H](/C(C)=C/[C@@H]3CC[C@@H](O)[C@H](OC)C3)[C@H](C)[C@@H](O)CC1=O)[C@H](C)C[C@@H]2OC [Tacrolimus, tacrolimus] : what is it?
Found: 226

---

assay: Tacrolimus pharmacokinetic profiles and trough level monitoring before and after switch of booster from ritonavir to cobicistat in an HIV-infected kidney transplant recipient; assay type: in vivo, human; conditions: human, plasma, oral, co-administered with darunavir/cobicistat 800/150 mg once daily; 1st pharmacokinetic profile; dosing interval 11 days; read-out: AUC264h
Assay Endpoint: AUC(0-t) (ng·h/mL)
Give the quantity in ng·h/mL, number only.

Lookup: Quick one: AUC(0-t) for C=CC[C@@H]1/C=C(\C)C[C@H](C)C[C@H](OC)[C@H]2O[C@@](O)(C(=O)C(=O)N3CCCC[C@H]3C(=O)O[C@H](/C(C)=C/[C@@H]3CC[C@@H](O)[C@H](OC)C3)[C@H](C)[C@@H](O)CC1=O)[C@H](C)C[C@@H]2OC ?
Found: 1750

---

test: Tacrolimus pharmacokinetic profiles and trough level monitoring before and after switch of booster from ritonavir to cobicistat in an HIV-infected kidney transplant recipient; assay type: in vivo, human; settings: human, plasma, oral, co-administered with darunavir/cobicistat 800/150 mg once daily; 2nd pharmacokinetic profile; read-out: Tmax
Assay Endpoint: Tmax (h)
// note: answer is a bare numeric in h

Lookup: State the recorded Tmax for this entry: C=CC[C@@H]1/C=C(\C)C[C@H](C)C[C@H](OC)[C@H]2O[C@@](O)(C(=O)C(=O)N3CCCC[C@H]3C(=O)O[C@H](/C(C)=C/[C@@H]3CC[C@@H](O)[C@H](OC)C3)[C@H](C)[C@@H](O)CC1=O)[C@H](C)C[C@@H]2OC
Found: 8

---

Assay: Tacrolimus pharmacokinetic profiles and trough level monitoring before and after switch of booster from ritonavir to cobicistat in an HIV-infected kidney transplant recipient
Type: in vivo, human
Conditions: human, plasma, oral, co-administered with darunavir/ritonavir 800/100 mg once daily; 2nd pharmacokinetic profile; dosing interval 11 days; read-out: AUC264h
Excerpt: Due to the high daily pill burden (i.e., 4 tablets mycophenolate mofetil, 10 tablets for the antiretroviral regimen, 7 pills for the treatment of cardiovascular risk factors, and 8 pills for additional indications), and with new combination antiretroviral pills available, a treatment simplification was envisaged. […]
Assay Endpoint: AUC(0-t) (µg·h/mL)
Answer in µg·h/mL, number only, no unit symbol.

Lookup: Which AUC(0-t) reading was recorded for the compound C=CC[C@@H]1/C=C(\C)C[C@H](C)C[C@H](OC)[C@H]2O[C@@](O)(C(=O)C(=O)N3CCCC[C@H]3C(=O)O[C@H](/C(C)=C/[C@@H]3CC[C@@H](O)[C@H](OC)C3)[C@H](C)[C@@H](O)CC1=O)[C@H](C)C[C@@H]2OC ?
Found: 2.39

Hello, the source for this data is paper PMC10163738, in case you need it.
